We begin with a simple list: items and their reported protein stability index.
B1: ESRRG (parent)
chain: YSCPATNECEITKRRRKSCQACRF

# Variants of: B1
# protocol.notes: protein stability index of a GFP-peptide fusion (GPS, HEK-293T) (PSI 1-6); higher = more stable;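 also: lentivirally expressed fusions sorted by FACS into six bins by GFP to DsRed ratio, PSI derived from sequencing read proportions per bin multiplied by bin number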
# test.settings: c terminus: a fixed tail appended
property.label: protein stability index

[
  {
    "macromolecule.sequence": "YSCPATNECEVTKRRRKSCQACRF [I11V]",
    "recorded.result": 3.25
  },
  {
    "macromolecule.sequence": "YSCPATNECEITKRRRKSCGACRF [Q20G]",
    "recorded.result": 3.53
  },
  {
    "macromolecule.sequence": "YSCPATNETEITKRRRKSCQACRF [C9T]",
    "recorded.result": 3.61
  },
  {
    "macromolecule.sequence": "YSHPATNECEITKRRRKSCQACRF [C3H]",
    "recorded.result": 2.7
  },
  {
    "macromolecule.sequence": "YSCPATNECEITKRHRKSCQACRF [R15H]",
    "recorded.result": 4.16
  },
  {
    "macromolecule.sequence": "ASCPATNECEITKRRRKSCQACRF [Y1A]",
    "recorded.result": 4.13
  },
  {
    "macromolecule.sequence": "YSCPATNEEEITKRRRKSCQACRF [C9E]",
    "recorded.result": 3.79
  },
  {
    "macromolecule.sequence": "YSCPATNECEITKRRRKSCYACRF [Q20Y]",
    "recorded.result": 2.81
  },
  {
    "macromolecule.sequence": "YSCPATNECEITKRRRKSVQACRF [C19V]",
    "recorded.result": 3.27
  },
  {
    "macromolecule.sequence": "YSCPATNEFEITKRRRKSCQACRF [C9F]",
    "recorded.result": 3.32
  },
  {
    "macromolecule.sequence": "YSCPATNECEITKRRRKSCMACRF [Q20M]",
    "recorded.result": 2.86
  },
  {
    "macromolecule.sequence": "YSDPATNECEITKRRRKSCQACRF [C3D]",
    "recorded.result": 3.72
  },
  {
    "macromolecule.sequence": "YSCPFTNECEITKRRRKSCQACRF [A5F]",
    "recorded.result": 2.79
  },
  {
    "macromolecule.sequence": "YSCPATNECEITKRRRWSCQACRF [K17W]",
    "recorded.result": 2.83
  },
  {
    "macromolecule.sequence": "YSCDATNECEITKRRRKSCQACRF [P4D]",
    "recorded.result": 3.48
  },
  {
    "macromolecule.sequence": "YSCPATNECEIFKRRRKSCQACRF [T12F]",
    "recorded.result": 2.19
  }
]
